Molecular target: human αVβ8 (Homo sapiens, UniProt P06756+P26012)
Sequence (P26012 43-684 limits assumed, one chain of several): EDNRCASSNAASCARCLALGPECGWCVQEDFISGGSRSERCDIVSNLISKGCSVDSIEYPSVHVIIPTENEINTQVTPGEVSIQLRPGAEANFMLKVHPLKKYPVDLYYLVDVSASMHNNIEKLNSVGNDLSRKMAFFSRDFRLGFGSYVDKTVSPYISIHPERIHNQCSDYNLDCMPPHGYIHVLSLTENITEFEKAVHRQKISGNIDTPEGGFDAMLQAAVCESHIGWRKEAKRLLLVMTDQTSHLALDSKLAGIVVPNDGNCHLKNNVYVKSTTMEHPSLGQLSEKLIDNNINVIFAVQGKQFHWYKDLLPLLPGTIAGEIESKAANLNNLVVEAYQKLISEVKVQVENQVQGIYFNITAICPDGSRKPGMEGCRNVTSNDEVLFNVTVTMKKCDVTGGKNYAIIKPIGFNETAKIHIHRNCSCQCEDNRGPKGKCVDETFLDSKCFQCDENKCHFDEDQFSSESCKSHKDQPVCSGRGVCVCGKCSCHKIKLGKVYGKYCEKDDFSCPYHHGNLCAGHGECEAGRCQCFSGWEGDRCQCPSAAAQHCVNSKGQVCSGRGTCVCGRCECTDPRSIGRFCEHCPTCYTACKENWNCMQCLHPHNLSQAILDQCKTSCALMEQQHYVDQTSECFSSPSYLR
Experiment: human αVβ8 HTRF binding assay
pIC50: −log10 of the molar value. Structures can show the parent of a compound that is named as a salt.
VALUE TYPE: pIC50

[[record]]
compound = "COc1ccc([C@H](CC(=O)O)n2ncc3cc(OCCc4ccc5c(n4)NCCC5)ccc32)cn1"
value_type = "pIC50"
data_value = 6.29

[[record]]
compound = "O=C(O)CC(c1cncc(N2CCCC2=O)c1)n1ncc2cc(OCCc3ccc4c(n3)NCCC4)ccc21 (stereo not drawn) [Example 102, TFA]"
value_type = "pIC50"
data_value = 5.89

[[record]]
compound = "O=C(O)CC(c1cnc(N2CCC2)nc1)n1ncc2cc(OCCc3ccc4c(n3)NCCC4)ccc21 (stereo not drawn) [Example 119, TFA]"
value_type = "pIC50"
data_value = 5.36

[[record]]
compound = "O=C(O)CC(c1cncc(-c2cnco2)c1)n1ncc2cc(OCCc3ccc4c(n3)NCCC4)ccc21 (stereo not drawn)"
value_type = "pIC50"
data_value = 5.59

[[record]]
compound = "COc1ccc([C@H](CC(=O)O)n2cc3ccc(CCC4CCc5cccnc5N4)cc3n2)cn1 (stereo partly drawn)"
value_type = "pIC50"
data_value = 5.49

[[record]]
compound = "O=C(O)CC(c1cnc2c(c1)OCCO2)n1ncc2cc(OCCc3ccc4c(n3)NCCC4)ccc21 (stereo not drawn) [Example 109, TFA]"
value_type = "pIC50"
data_value = 5.03

[[record]]
compound = "CNc1ncc(C(CC(=O)O)n2ncc3cc(OCCc4ccc5c(n4)NCCC5)ccc32)cn1 (stereo not drawn) [Example 112, TFA]"
value_type = "pIC50"
data_value = 5.30

[[record]]
compound = "O=C(O)CC(c1cnc2ncccc2c1)n1ncc2cc(OCCc3ccc4c(n3)NCCC4)ccc21 (stereo not drawn) [Example 101, TFA]"
value_type = "pIC50"
data_value = 5.64

[[record]]
compound = "COc1ncc([C@H](CC(=O)O)n2cc3ccc(CCc4ccc5c(n4)NCCC5)cc3n2)cn1"
value_type = "pIC50"
data_value = 5.51

[[record]]
compound = "CCOc1ncc(C(CC(=O)O)n2ncc3cc(OCCc4ccc5c(n4)NCCC5)ccc32)cn1 (stereo not drawn) [Example 77, TFA]"
value_type = "pIC50"
data_value = 5.30

[[record]]
compound = "COc1ccc(C(CC(=O)O)n2ncc3cc(OCCc4ccc5c(n4)NCCC5)ccc32)cn1 (stereo not drawn) [Example 34, TFA]"
value_type = "pIC50"
data_value = 5.89

[[record]]
compound = "O=C(O)C[C@@H](c1cncc(CO)c1)n1ncc2cc(OCCc3ccc4c(n3)NCCC4)ccc21"
value_type = "pIC50"
data_value = 5.36

[[record]]
compound = "Cn1ncc2cc(C(CC(=O)O)n3ncc4cc(OCCc5ccc6c(n5)NCCC6)ccc43)cnc21 (stereo not drawn) [Example 117, TFA]"
value_type = "pIC50"
data_value = 5.66

[[record]]
compound = "CCOc1ncc([C@H](CC(=O)O)n2ncc3cc(OCCc4ccc5c(n4)NCCC5)ccc32)cn1 [Example 107, TFA]"
value_type = "pIC50"
data_value = 6.52

[[record]]
compound = "O=C(O)C[C@@H](c1cnc2ccccc2n1)n1ncc2cc(OCCc3ccc4c(n3)NCCC4)ccc21"
value_type = "pIC50"
data_value = 5.72


---

Biological target: human αVβ6 (Homo sapiens, UniProt P06756+P18564)
Sequence (P06756 31-992 limits assumed): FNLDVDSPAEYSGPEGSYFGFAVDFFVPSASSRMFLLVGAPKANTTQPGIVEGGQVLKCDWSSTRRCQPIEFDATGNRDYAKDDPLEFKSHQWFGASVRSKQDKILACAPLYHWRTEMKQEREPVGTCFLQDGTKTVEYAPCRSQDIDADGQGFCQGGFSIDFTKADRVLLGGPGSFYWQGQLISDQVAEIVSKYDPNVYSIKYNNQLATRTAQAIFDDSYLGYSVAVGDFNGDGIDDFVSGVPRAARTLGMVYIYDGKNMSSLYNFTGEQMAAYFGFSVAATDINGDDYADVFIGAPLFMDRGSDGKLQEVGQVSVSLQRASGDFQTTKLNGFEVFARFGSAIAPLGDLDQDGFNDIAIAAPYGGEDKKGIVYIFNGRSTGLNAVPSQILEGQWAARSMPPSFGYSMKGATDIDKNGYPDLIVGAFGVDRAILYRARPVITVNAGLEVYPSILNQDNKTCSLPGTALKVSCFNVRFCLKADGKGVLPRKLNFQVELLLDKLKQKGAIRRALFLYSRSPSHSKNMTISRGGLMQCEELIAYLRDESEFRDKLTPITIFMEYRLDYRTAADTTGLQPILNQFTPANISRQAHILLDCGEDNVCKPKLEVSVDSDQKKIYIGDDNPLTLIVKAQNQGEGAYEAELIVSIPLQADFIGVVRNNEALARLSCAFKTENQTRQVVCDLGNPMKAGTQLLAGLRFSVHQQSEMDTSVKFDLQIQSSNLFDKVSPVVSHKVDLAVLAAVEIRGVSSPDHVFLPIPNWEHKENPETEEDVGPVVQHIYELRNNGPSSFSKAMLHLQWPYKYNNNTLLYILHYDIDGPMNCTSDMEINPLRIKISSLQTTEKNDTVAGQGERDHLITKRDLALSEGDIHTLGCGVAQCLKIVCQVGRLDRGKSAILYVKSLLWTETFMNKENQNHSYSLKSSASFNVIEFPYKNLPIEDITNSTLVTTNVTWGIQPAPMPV
Sequence (P18564 22-707 limits assumed): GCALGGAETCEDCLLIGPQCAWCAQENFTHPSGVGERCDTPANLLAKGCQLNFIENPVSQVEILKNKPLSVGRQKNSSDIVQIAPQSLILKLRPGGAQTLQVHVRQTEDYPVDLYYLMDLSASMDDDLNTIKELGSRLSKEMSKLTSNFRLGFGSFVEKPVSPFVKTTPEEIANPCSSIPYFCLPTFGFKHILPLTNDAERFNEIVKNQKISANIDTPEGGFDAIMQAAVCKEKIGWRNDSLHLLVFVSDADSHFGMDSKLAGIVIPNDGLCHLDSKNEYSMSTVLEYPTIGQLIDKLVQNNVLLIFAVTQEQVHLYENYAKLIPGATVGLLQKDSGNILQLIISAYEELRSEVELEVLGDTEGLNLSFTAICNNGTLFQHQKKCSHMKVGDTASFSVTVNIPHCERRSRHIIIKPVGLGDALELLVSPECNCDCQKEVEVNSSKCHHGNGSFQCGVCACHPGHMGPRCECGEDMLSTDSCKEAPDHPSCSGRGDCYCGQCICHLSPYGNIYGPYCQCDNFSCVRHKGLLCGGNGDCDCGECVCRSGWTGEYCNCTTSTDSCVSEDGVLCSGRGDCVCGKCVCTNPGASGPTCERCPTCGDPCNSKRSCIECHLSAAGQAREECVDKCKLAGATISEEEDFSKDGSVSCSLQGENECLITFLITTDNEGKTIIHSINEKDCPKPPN
Test: human αVβ6 HTRF binding assay
Conditions: recombinant human αVβ6 integrin, FITC-conjugated fibronectin
Counter-ions that a name gives are not always drawn.
# if measured IC50 < 60 nM: TRUE  # else: FALSE

[[record]]
molecule = "COC(=O)NCc1cncc(C(CC(=O)O)n2ncc3cc(OCCc4ccc5c(n4)NCCC5)ccc32)c1 (centres unmarked)"
system_under_test = "human αVβ6 (Homo sapiens, UniProt P06756+P18564)"
label = "TRUE"

[[record]]
molecule = "COc1ncc([C@H](CC(=O)O)n2cc3ccc(CCc4ccc5c(n4)NCCC5)cc3n2)cn1"
system_under_test = "human αVβ6 (Homo sapiens, UniProt P06756+P18564)"
label = "TRUE"

[[record]]
molecule = "O=C(O)CC(c1ccc2cccnc2n1)n1ncc2cc(OCCc3ccc4c(n3)NCCC4)ccc21 (centres unmarked) [Example 96, TFA]"
system_under_test = "human αVβ6 (Homo sapiens, UniProt P06756+P18564)"
label = "TRUE"

[[record]]
molecule = "CCCn1cc(C(CC(=O)O)n2ncc3cc(OCCc4ccc5c(n4)NCCC5)ccc32)cn1 (centres unmarked) [Example 63, TFA]"
system_under_test = "human αVβ6 (Homo sapiens, UniProt P06756+P18564)"
label = "TRUE"

[[record]]
molecule = "O=C(O)CC(c1ccc2ncsc2c1)n1ncc2cc(OCCc3ccc4c(n3)NCCC4)ccc21 (centres unmarked) [Example 110, TFA]"
system_under_test = "human αVβ6 (Homo sapiens, UniProt P06756+P18564)"
label = "TRUE"

[[record]]
molecule = "CC(C)(C)OC(=O)N1CCC(C(CC(=O)O)n2ncc3cc(OCCc4ccc5c(n4)NCCC5)ccc32)CC1 (centres unmarked)"
system_under_test = "human αVβ6 (Homo sapiens, UniProt P06756+P18564)"
label = "FALSE"

[[record]]
molecule = "CN(C)C(=O)c1cccc(C(CC(=O)O)n2ncc3cc(OCCc4ccc5c(n4)NCCC5)ccc32)c1 (centres unmarked)"
system_under_test = "human αVβ6 (Homo sapiens, UniProt P06756+P18564)"
label = "TRUE"

[[record]]
molecule = "CCOc1ncc([C@@H](CC(=O)O)n2ncc3cc(OCCc4ccc5c(n4)NCCC5)ccc32)cn1 [Example 108, TFA]"
system_under_test = "human αVβ6 (Homo sapiens, UniProt P06756+P18564)"
label = "FALSE"

[[record]]
molecule = "COc1ccc([C@@H](CC(=O)O)n2ncc3cc(OCCc4ccc5c(n4)NCCC5)ccc32)cn1"
system_under_test = "human αVβ6 (Homo sapiens, UniProt P06756+P18564)"
label = "FALSE"

[[record]]
molecule = "O=C(O)C[C@H](c1cncc(N2CCCC2=O)c1)n1ncc2cc(OCCc3ccc4c(n3)NCCC4)ccc21"
system_under_test = "human αVβ6 (Homo sapiens, UniProt P06756+P18564)"
label = "FALSE"

[[record]]
molecule = "COc1ncc([C@H](CC(=O)O)n2ncc3cc(OCCc4ccc5c(n4)NCCC5)ccc32)cn1"
system_under_test = "human αVβ6 (Homo sapiens, UniProt P06756+P18564)"
label = "TRUE"


---

Some molecules, each annotated with its measured IC50.
Target: human αVβ1 (Homo sapiens, UniProt P05556+P06756)
Sequence (P06756 31-992 limits assumed): as the sequence (P06756 31-992 limits assumed) above
Sequence (P05556 21-728 limits assumed): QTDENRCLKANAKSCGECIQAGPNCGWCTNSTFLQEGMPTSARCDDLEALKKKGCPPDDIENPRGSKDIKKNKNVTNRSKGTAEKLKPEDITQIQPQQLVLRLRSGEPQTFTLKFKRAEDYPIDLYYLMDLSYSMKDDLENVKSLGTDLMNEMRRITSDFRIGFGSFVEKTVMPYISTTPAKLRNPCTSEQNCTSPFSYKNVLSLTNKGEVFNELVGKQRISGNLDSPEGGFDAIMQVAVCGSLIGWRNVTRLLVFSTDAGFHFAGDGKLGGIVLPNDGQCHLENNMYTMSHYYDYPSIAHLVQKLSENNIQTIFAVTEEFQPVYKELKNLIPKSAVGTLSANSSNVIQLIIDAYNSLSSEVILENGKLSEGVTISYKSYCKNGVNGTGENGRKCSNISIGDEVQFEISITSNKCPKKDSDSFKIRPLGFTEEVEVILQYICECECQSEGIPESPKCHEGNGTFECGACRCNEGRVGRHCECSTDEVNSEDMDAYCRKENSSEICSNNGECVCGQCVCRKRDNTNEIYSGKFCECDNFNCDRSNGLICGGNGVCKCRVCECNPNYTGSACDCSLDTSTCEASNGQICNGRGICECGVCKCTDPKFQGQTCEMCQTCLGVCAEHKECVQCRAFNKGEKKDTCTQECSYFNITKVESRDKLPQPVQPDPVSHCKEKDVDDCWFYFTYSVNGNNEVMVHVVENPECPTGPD
Assay: human αVβ1 HTRF binding assay
Counter-ions that a name gives are not always drawn.
VALUE TYPE: IC50 (nM)

[[record]]
molecule = "CCOc1ncc([C@H](CC(=O)O)n2ncc3cc(OCCc4ccc5c(n4)NCCC5)ccc32)cn1 [Example 107, TFA]"
unit_abbrev = "nM"
data_value = 64

[[record]]
molecule = "CCOc1ncc(C(CC(=O)O)n2ncc3cc(OCCc4ccc5c(n4)NCCC5)ccc32)cn1 (stereo not drawn) [Example 77, TFA]"
unit_abbrev = "nM"
data_value = 170

[[record]]
molecule = "O=C(O)C[C@@H](c1cnc2ccccc2n1)n1ncc2cc(OCCc3ccc4c(n3)NCCC4)ccc21"
unit_abbrev = "nM"
data_value = 190


---

Molecular target: human αVβ1 (Homo sapiens, UniProt P05556+P06756)
Assay: human αVβ1 HTRF binding assay
Where a name gives a salt, the structure may show the parent alone.
Some molecules, each annotated with its measured IC50.
VALUE TYPE: IC50 (nM)

[[record]]
molecule = "COc1ncc(C(CC(=O)O)n2ncc3cc(OCCc4ccc5c(n4)NCCC5)ccc32)cn1 (centres unmarked) [Example 92, TFA]"
data_value = 210

[[record]]
molecule = "COc1ccc([C@H](CC(=O)O)n2cc3ccc(CCC4CCc5cccnc5N4)cc3n2)cn1 (some centres unmarked)"
data_value = 740

[[record]]
molecule = "O=C(O)CC(c1cncc(-c2cnco2)c1)n1ncc2cc(OCCc3ccc4c(n3)NCCC4)ccc21 (centres unmarked)"
data_value = 71

[[record]]
molecule = "O=C(O)C[C@@H](c1cnc2ccccc2c1)n1cc2ccc(CCCc3ccc4c(n3)NCCC4)cc2n1"
data_value = 10000

[[record]]
molecule = "COc1ccc(C(CC(=O)O)n2ncc3cc(OCCc4ccc5c(n4)NCCC5)ccc32)cn1 (centres unmarked) [Example 34, TFA]"
data_value = 95

[[record]]
molecule = "O=C(O)CC(c1cnc2c(c1)OCCN2)n1ncc2cc(OCCc3ccc4c(n3)NCCC4)ccc21 (centres unmarked) [Example 97, TFA]"
data_value = 100

[[record]]
molecule = "O=C(O)C[C@@H](c1cnc2ccccc2c1)n1cc2ccc(CCC3CCc4cccnc4N3)cc2n1 (some centres unmarked)"
data_value = 360

[[record]]
molecule = "CNc1ncc(C(CC(=O)O)n2ncc3cc(OCCc4ccc5c(n4)NCCC5)ccc32)cn1 (centres unmarked) [Example 112, TFA]"
data_value = 93

